- System: PRKACA (mouse)
- measurementConditions: compound 10.0 µM; accession and sequence are those of the human protein
// label = fulfilled if inhibition is not less than 9%, otherwise not fulfilled

Look over these answered cases.
INSERT INTO measurements (molecule, labelvalue) VALUES
  ('Cc1cc2nc3c(=O)[nH]c(=O)nc-3n(C)c2cc1C=O', 'fulfilled'),
  ('Cc1ccc(-c2nn(C(C)(C)C)c3ncnc(N)c23)cc1', 'fulfilled'),
  ('O=C1NC(=O)C(c2ccccc2[N+](=O)[O-])=C1Nc1ccc(O)c(Cl)c1', 'not fulfilled'),
  ('Cn1cc(/C=C2/C(=O)Nc3cccnc32)c2ccccc21', 'not fulfilled'),
  ('O=C1NC(=O)c2c1c1c3ccccc3n3c1c1c2c2ccccc2n1C1CCC3O1', 'fulfilled');

Task: Exam item: decide whether the reported inhibition for N#CC(=C(\N)Sc1ccccc1N)/C(C#N)=C(/N)Sc1ccccc1N is at least 9%.
Result: not fulfilled

Task: Decide: is the reported value of inhibition for Cn1cnc2c(NCc3ccccc3)nc(NCCO)nc21 equal to or greater than 9%?
Result: not fulfilled

Task: Dear colleague, could you confirm whether c1cc(-c2cnn3cc(-c4ccc(OCCN5CCCCC5)cc4)cnc23)ccn1 has inhibition at or above 9%?
Result: not fulfilled

Task: Assess whether reported inhibition for CN(C)CCCn1cc(C2=C(c3c[nH]c4ccccc34)C(=O)NC2=O)c2ccccc21 sits at 9% or higher.
Result: fulfilled
